Where do these numbers come from? They come from patent US20260184710A1.

Measured Dmax accompanies every entry in the list below.
# MEASURED TARGET: Cbl-b (Homo sapiens, UniProt Q13191)
# Construct: Cbl-b-HiBit KI Jurkat Cells were purchased from Promega; host or cells: Cbl-b-HiBiT knock-in Jurkat cells
# Sequence (Q13191 whole entry): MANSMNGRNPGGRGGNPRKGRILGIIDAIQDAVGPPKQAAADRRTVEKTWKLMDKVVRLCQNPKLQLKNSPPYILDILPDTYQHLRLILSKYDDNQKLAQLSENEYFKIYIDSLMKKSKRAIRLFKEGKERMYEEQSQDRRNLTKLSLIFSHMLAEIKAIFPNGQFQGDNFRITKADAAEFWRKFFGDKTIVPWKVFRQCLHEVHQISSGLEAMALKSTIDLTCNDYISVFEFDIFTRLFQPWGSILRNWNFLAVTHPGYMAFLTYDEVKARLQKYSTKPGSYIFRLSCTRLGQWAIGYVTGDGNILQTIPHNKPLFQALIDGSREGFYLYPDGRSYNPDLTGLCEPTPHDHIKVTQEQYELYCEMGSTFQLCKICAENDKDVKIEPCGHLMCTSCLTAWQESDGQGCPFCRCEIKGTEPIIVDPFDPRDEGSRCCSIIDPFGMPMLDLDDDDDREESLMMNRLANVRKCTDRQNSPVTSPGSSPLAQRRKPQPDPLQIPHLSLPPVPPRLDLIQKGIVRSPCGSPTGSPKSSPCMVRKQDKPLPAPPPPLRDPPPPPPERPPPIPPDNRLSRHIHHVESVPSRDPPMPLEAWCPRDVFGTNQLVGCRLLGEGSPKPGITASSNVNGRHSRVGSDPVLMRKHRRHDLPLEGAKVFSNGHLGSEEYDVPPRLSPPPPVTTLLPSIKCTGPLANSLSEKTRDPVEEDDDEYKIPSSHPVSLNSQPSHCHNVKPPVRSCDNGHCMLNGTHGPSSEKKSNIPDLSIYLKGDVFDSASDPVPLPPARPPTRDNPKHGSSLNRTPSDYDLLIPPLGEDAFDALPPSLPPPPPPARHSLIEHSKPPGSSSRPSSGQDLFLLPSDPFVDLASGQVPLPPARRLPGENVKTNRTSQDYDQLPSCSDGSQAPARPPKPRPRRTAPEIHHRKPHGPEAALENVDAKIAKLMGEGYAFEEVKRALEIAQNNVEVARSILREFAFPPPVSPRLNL
# PROTOCOL DESCRIPTION: Cbl-b Degradation Method A (FACS, anti-Cbl-b antibody staining)
# Format: cell-based
# TEST CONDITIONS: Jurkat, Cbl-b-HiBit KI Jurkat Cells, incubated at least 20 hours; maximum degradation observed; read-out: Cbl-b Degredation Method A Dmax (%)
REPORTED METRIC: Dmax

INSERT INTO assay_data (compound, reported_metric, reported_value) VALUES
  ('Cn1cnnc1CC1(c2cccc(N3Cc4c(cc(CN5CCN(C[C@H]6CC[C@H](OC7CCN(c8ccc9c(n8)CN(C8CCC(=O)NC8=O)C9=O)CC7)CC6)CC5)cc4C(F)(F)F)C3=O)c2)COC1 (stereo partly drawn) [Example 112]', 'Dmax', '35 to 70%'),
  ('Cn1cnnc1CC1(c2cccc(N3Cc4c(cc(N5CC6(CCN(C[C@H]7CC[C@H](OC8CCN(c9ccc%10c(c9Cl)CN(C9CCC(=O)NC9=O)C%10=O)CC8)CC7)CC6)C5)cc4C(F)(F)F)C3=O)c2)COC1 (stereo partly drawn) [Example 184]', 'Dmax', '> 70%'),
  ('Cn1cnnc1[C@]1(c2cccc(N3Cc4c(cc(CN5CCC[C@H](CN6CCN(C[C@H]7CC[C@@H](OC8CCN(c9ccc%10c(c9F)CN(C9CCC(=O)NC9=O)C%10=O)CC8)CC7)CC6)C5)cc4C(F)(F)F)C3=O)c2)C[C@H](C)C1 (stereo partly drawn) [Example 159]', 'Dmax', '> 70%'),
  ('Cn1cnnc1CC1(c2cccc(N3Cc4c(cc(N5CC6(CCN(CC7CN(c8ccc9c(c8)C(=O)N(C8CCC(=O)NC8=O)C9=O)C7)CC6)C5)cc4C(F)(F)F)C3=O)c2)COC1 (stereo not drawn) [Example 132]', 'Dmax', '35 to 70%'),
  ('Cc1cc(N2CCC(O[C@H]3CC[C@H](CN4CCN(Cc5cc6c(c(C(F)(F)F)c5)CN(c5cccc(C7(Cc8nncn8C)CCC7)c5)C6=O)C(C)(C)C4)CC3)CC2)c(F)c2c1C(=O)N(C1CCC(=O)NC1=O)C2 (stereo partly drawn) [Example 224]', 'Dmax', '> 70%'),
  ('Cc1cc(N2CCC(CN3CCC4(CC3)CN(c3cc5c(c(C(F)(F)F)c3)CN(c3cccc(C6(Cc7nncn7C)CCC6)c3)C5=O)C4)CC2)c(F)c2c1C(=O)N(C1CCC(=O)NC1=O)C2 (stereo not drawn) [Example 190]', 'Dmax', '> 70%'),
  ('CC1c2nc(N3CCC(O[C@H]4CC[C@H](CN5C[C@H]6C[C@@H]5CN6c5cc6c(c(C(F)(F)F)c5)CN(c5cccc([C@]7(Cc8nncn8C)C[C@@H](C#N)C7)c5)C6=O)CC4)CC3)ccc2C(=O)N1C1CCC(=O)NC1=O (stereo partly drawn) [Example 181]', 'Dmax', '35 to 70%'),
  ('COc1c(N2CCC(F)(CN3CCC4(CC3)CN(c3cc5c(c(C(F)(F)F)c3)CN(c3cccc(C6(Cc7nncn7C)COC6)c3)C5=O)C4)CC2)ccc2c1CN(C1CCC(=O)NC1=O)C2=O (stereo not drawn) [Example 185]', 'Dmax', '35 to 70%'),
  ('Cn1cnnc1CC1(c2cccc(NC(=O)c3cc(N4CC5(CCN(CC6CCN(c7ccc8c(c7)C(=O)N(C7CCC(=O)NC7=O)C8=O)CC6)CC5)C4)nc(C4CC4)n3)c2)COC1 (stereo not drawn) [Example 18]', 'Dmax', '< 35%');

====

# MEASURED TARGET: Cbl-b (Homo sapiens, UniProt Q13191)
# Construct: Cbl-b-HiBit KI Jurkat Cells were purchased from Promega; host or cells: Cbl-b-HiBiT knock-in Jurkat cells
# PROTOCOL DESCRIPTION: Cbl-b Degradation Method A (FACS, anti-Cbl-b antibody staining)
# Type: cell-based
# TEST CONDITIONS: Cbl-b-HiBit KI Jurkat Cells, incubated at least 20 hours; half maximal degradation; read-out: Cbl-b Degredation Method A IC50
Measured DC50 accompanies every entry in the list below.
REPORTED METRIC: DC50

INSERT INTO results (molecule, reported_value) VALUES
  ('CC1c2nc(N3CCC(O[C@H]4CC[C@H](CN5C[C@H]6C[C@@H]5CN6c5cc6c(c(C(F)(F)F)c5)CN(c5cccc([C@]7(Cc8nncn8C)C[C@@H](C#N)C7)c5)C6=O)CC4)CC3)ccc2C(=O)N1C1CCC(=O)NC1=O (stereo partly drawn) [Example 181]', '< 5 nM'),
  ('Cn1cnnc1C[C@]1(c2cccc(N3Cc4c(cc(N5CC6(CCN(CC7CCN(c8ccc9c(c8Cl)CN(C8CCC(=O)NC8=O)C9=O)CC7)CC6)C5)cc4C(F)(F)F)C3=O)c2)C[C@H](C#N)C1 (stereo partly drawn) [Example 173]', '5 to 50 nM'),
  ('CC(C)n1c(=O)n(C2CCC(=O)NC2=O)c2cccc(N3CCC(CN4CCC5(CC4)CN(Cc4ccc(-c6cc7c(c(C(F)(F)F)c6)CN(c6cccc(C8(Cc9nncn9C)CC(C#N)C8)c6)C7=O)cc4)C5)CC3)c21 (stereo not drawn) [Example 283]', '50 to 500 nM'),
  ('Cn1cnnc1[C@]1(c2cccc(N3Cc4c(cc(CN5CCC[C@H](CN6CCN(C[C@H]7CC[C@@H](OC8CCN(c9ccc%10c(c9F)CN(C9CCC(=O)NC9=O)C%10=O)CC8)CC7)CC6)C5)cc4C(F)(F)F)C3=O)c2)C[C@H](C)C1 (stereo partly drawn) [Example 159]', '< 5 nM'),
  ('C[C@H]1C[C@@H](CN2CCN(c3cccc4c3C(=O)N(C3CCC(=O)NC3=O)C4=O)CC2)CN(Cc2cc3c(c(C(F)(F)F)c2)CN(c2cccc(C4(Cc5nncn5C)COC4)c2)C3=O)C1 (stereo partly drawn) [Example 90]', '> 500 nM'),
  ('Cn1cnnc1CC1(c2cccc(N3Cc4c(cc(CN5CCCC(N6CC7(CCN(c8ccc9c(c8)C(=O)N(C8CCC(=O)NC8=O)C9=O)CC7)C6)C5)cc4C(F)(F)F)C3=O)c2)COC1 (stereo not drawn) [Example 108]', '5 to 50 nM'),
  ('Cn1cnnc1CC1(c2cccc(N3Cc4c(cc(CN5CCC[C@H](CN6CCC(CN7CCC(CN8CCN(c9ccc%10c(c9)C(=O)N(C9CCC(=O)NC9=O)C%10=O)CC8)CC7)CC6)C5)cc4C(F)(F)F)C3=O)c2)COC1 (stereo partly drawn) [Example 97]', '5 to 50 nM'),
  ('Cc1cc(N2CCC(CN3CCC4(C3)CN(c3cc5c(c(C(F)(F)F)c3)CN(c3cccc([C@]6(Cc7nncn7C)C[C@@H](C#N)C6)c3)C5=O)C4)CC2)c(F)c2c1C(=O)N(C1CCC(=O)NC1=O)C2 (stereo partly drawn) [Example 176]', '5 to 50 nM'),
  ('Cc1cc(N2CCC(CN3CC4(C3)CN(C3=CC5C(=O)N(c6cccc([C@]7(Cc8nncn8C)C[C@@H](C#N)C7)c6)CC5C(C(F)(F)F)=C3)C4)CC2)c(F)c2c1C(=O)N(C1CCC(=O)NC1=O)C2 (stereo partly drawn) [Example 189]', '5 to 50 nM');

====

Measured DC50 accompanies every entry in the list below.
# MEASURED TARGET: Cbl-b (Homo sapiens)
# Construct: Cbl-b-HiBit KI Jurkat Cells were purchased from Promega; host or cells: Cbl-b-HiBiT knock-in Jurkat cells
# PROTOCOL DESCRIPTION: Cbl-b Degradation Method B (Nano-Glo HiBiT lytic detection)
# Assay type: cell-based
# TEST CONDITIONS: Cbl-b-HiBit KI Jurkat Cells, incubated at least 6-24 hours; half maximal degradation; read-out: Cbl-b Degredation Method B IC50
# Description: Cbl-b Degradation Method B [table] Cbl-b-HiBit KI Jurkat Cells were purchased from Promega, and cell media consisted of RPMI 1640 with 10% […] and 1% pen/strep. The cells were counted, measured for viability, and 35 μL of the cell solution was seeded into 384 well flat bottom plates at a ratio of 20,000 cells per 35 μL. […] After incubation, 30 μL of either NanoGlo media was added to each cell, and the plates read on the Synergy Neo2 machine. […]
REPORTED METRIC: DC50

INSERT INTO assay_data (molecule, measured_target, reported_value) VALUES
  ('Cn1cnnc1CC1(c2cccc(N3Cc4c(cc(CN5CCC[C@H](CN6CCC(CN7CCC(CN8CCN(c9ccc%10c(c9)C(=O)N(C9CCC(=O)NC9=O)C%10=O)CC8)CC7)CC6)C5)cc4C(F)(F)F)C3=O)c2)COC1 (stereo partly drawn) [Example 97]', 'Cbl-b (Homo sapiens)', '< 5 nM'),
  ('Cn1cnnc1CC1(c2cccc(N3Cc4c(cc(N5CCC(COCCOc6ccc7c(c6)C(=O)N(C6CCC(=O)NC6=O)C7=O)CC5)cc4C(F)(F)F)C3=O)c2)COC1 (stereo not drawn) [Example 15]', 'Cbl-b (Homo sapiens)', '> 500 nM'),
  ('CC(C)n1c(=O)n(C2CCC(=O)NC2=O)c2ccc(N3CCC(O[C@H]4CC[C@H](CN5CCN(Cc6cc7c(c(C(F)(F)F)c6)CN(c6cccc([C@]8(Cc9nncn9C)C[C@@H](C#N)C8)c6)C7=O)CC5)CC4)CC3)cc21 (stereo partly drawn) [Example 228]', 'Cbl-b (Homo sapiens)', '< 5 nM');
